Provenance of the data: patent US20100310640A1

Form field: IC50 (one value per entry).
# Measured target: T1, HLA-DR molecule DRB1*0101 (human)
# T1 chain 1: not shown
# T1 chain 2: not shown
# Experimental details: radioligand inhibition, purified HLA-DR
# Applied conditions: remark: other sources report otherwise
Report only the number, with the unit nM understood.

Binder	Unit of measurement	IC50
ERGPLEHLYSLHIPN [Peptide 9019.0190 (IGFBP2.249)]	nM	7.7

Then this binder:
Endpoint output: IC50 of LREVRAVTSANIQEF [Peptide 9019.0046 (Her2/neu.350)] . Value?
17
